species: Bos taurus; assay: Inhibition of Protein phosphatase 2B (PP2B) at 1 mM
Provide the recorded inhibition for the entries that follow.
The answer is to be given in %; state only the numeric part.

inhibition lookup needed for CC(=O)OCC12C=CC(O1)C1C(=O)OC(=O)C12 (centres undefined) , thanks.
50

inhibition lookup needed for O=C1OC(=O)C2C1C1C=CC2(CO)O1 (centres undefined) , thanks.
50

inhibition lookup needed for CC(=O)OCC1=CC2OC1C(C(=O)O)C2C(=O)O (centres undefined) , thanks.
89

inhibition lookup needed for O=C(O)C1C2CCC3(COC(=O)C13)O2 (centres undefined) , thanks.
20

inhibition lookup needed for CC(=O)OCC1=CC2OC1C1C(=O)OC(=O)C21 (centres undefined) , thanks.
90

inhibition lookup needed for O=C1OC(=O)C2C3C=CC(O3)C12 (centres undefined) , thanks.
99

inhibition lookup needed for CC12CCC(C)(O1)C(C(=O)O)C2C(=O)O (centres undefined) , thanks.
18

inhibition lookup needed for CC(=O)OCC12CCC(O1)C1C(=O)OC(=O)C12 (centres undefined) , thanks.
45

inhibition lookup needed for CC(=O)OCC1CC2OC1C1C(=O)OC(=O)C21 (centres undefined) , thanks.
85

inhibition lookup needed for CC(=O)OCC12C=CC(O1)C(C(=O)O)C2C(=O)O (centres undefined) , thanks.
60

inhibition lookup needed for C[C@@]12C(=O)OC(=O)[C@]1(C)C1CCC2O1 , thanks.
38

inhibition lookup needed for O=C1OC(=O)C2C3OC(CC3COC3CCCCC3)C12 (centres undefined) , thanks.
100

inhibition lookup needed for O=C1OC(=O)C2C3CCC(O3)C12 (centres undefined) , thanks.
98

inhibition lookup needed for O=C1OC(=O)C2C3OC(C=C3COC3CCCCC3)C12 (centres undefined) , thanks.
70

###

organism: Bos taurus; test: Inhibition of Protein phosphatase 2B (PP2B) at 0.1 mM
Measured Parameter: inhibition (%)
The answer is to be given in %; state only the numeric part.

inhibition lookup needed for O=C1OC(=O)C2C1C1C=CC2(CO)O1 (centres undefined) , thanks.
10

inhibition lookup needed for CC(=O)OCC1=CC2OC1C(C(=O)O)C2C(=O)O (centres undefined) , thanks.
20

inhibition lookup needed for O=C1OC(=O)C2C3CCC(O3)C12 (centres undefined) , thanks.
35

inhibition lookup needed for CC(=O)OCC12CCC(O1)C1C(=O)OC(=O)C12 (centres undefined) , thanks.
30

inhibition lookup needed for O=C(O)C1C2CCC3(COC(=O)C13)O2 (centres undefined) , thanks.
18

inhibition lookup needed for O=C1OC(=O)C2C3OC(C=C3COC3CCCCC3)C12 (centres undefined) , thanks.
30

inhibition lookup needed for CC12CCC(C)(O1)C(C(=O)O)C2C(=O)O (centres undefined) , thanks.
17

inhibition lookup needed for CC(=O)OCC12C=CC(O1)C(C(=O)O)C2C(=O)O (centres undefined) , thanks.
10

inhibition lookup needed for CC(=O)OCC12C=CC(O1)C1C(=O)OC(=O)C12 (centres undefined) , thanks.
10

inhibition lookup needed for O=C1OC(=O)C2C3C=CC(O3)C12 (centres undefined) , thanks.
40

inhibition lookup needed for CC(=O)OCC1CC2OC1C1C(=O)OC(=O)C21 (centres undefined) , thanks.
20

inhibition lookup needed for O=C1OC(=O)C2C3OC(CC3COC3CCCCC3)C12 (centres undefined) , thanks.
40

inhibition lookup needed for C[C@@]12C(=O)OC(=O)[C@]1(C)C1CCC2O1 , thanks.
15

inhibition lookup needed for CC(=O)OCC1=CC2OC1C1C(=O)OC(=O)C21 (centres undefined) , thanks.
25
